Data credit: the supplement of paper PMC11246515

Known total protein half-life in vivo of a selection of sequences
experiment: total protein half-life in vivo (active degradation + dilution); higher = more stable protein; conditions: wild type E. coli NCM3722; growth: C-lim chemostat; doubling time 12 h
Numbers only; they are read as h.

{"columns": ["SEQ", "RESULT UNIT", "total protein half-life in vivo"],
 "data": [
  ["MTHFSQQDNFSVAARVLGALFYYAPESAEAAPLVAVLTSDGWETQWPLPEASLAPLVTAFQTQCEETHAQAWQRLFVGPWALPSPPWGSVWLDRESVLFGDSTLALRQWMREKGIQFEMKQNEPEDHFGSLLLMAAWLAENGRQTECEELLAWHLFPWSTRFLDVFIEKAEHPFYRALGELARLTLAQWQSQLLIPVAVKPLFR", "h", 11.7]
]}

# ---- query sequence ----
Ask: Given the sequence MIGRLLRGGFMTAIYAYLYIPIIILIVNSFNSSRFGINWQGFTTKWYSLLMNNDSLLQAAQHSLTMAVFSATFATLIGSLTAVALYRYRFRGKPFVSGMLFVVMMSPDIVMAISLLVLFMLLGIQLGFWSLLFSHITFCLPFVVVTVYSRLKGFDVRMLEAAKDLGASEFTILRKIILPLAMPAVAAGWVLSFTLSMDDVVVSSFVTGPSYEILPLKIYSMVKVGVSPEVNALATILLVLSLVMVIASQLIARDKTKGNTGDVK [P0AFK6] , what is its reported total protein half-life in vivo?
Reply: 14

====

test: total protein half-life in vivo (active degradation + dilution); higher = more stable protein; details: wild type E. coli NCM3722; growth: C-lim chemostat; doubling time 3 h
Label 1.0 when total protein half-life in vivo is at or above 3 h; otherwise label 0.0.

{"columns": ["SEQ", "ASSIGNED CLASS"],
 "data": [
  ["MNKVAQYYRELVASLSERLRNGERDIDALVEQARERVIKTGELTRTEVDELTRAVRRDLEEFAMSYEESLKEESDSVFMRVIKESLWQELADITDKTQLEWREVFQDLNHHGVYHSGEVVGLGNLVCEKCHFHLPIYTPEVLTLCPKCGHDQFQRRPFEP [P0AAT9]", 0.0],
  ["MSHRDTLFSAPIARLGDWTFDERVAEVFPDMIQRSVPGYSNIISMIGMLAERFVQPGTQVYDLGCSLGAATLSVRRNIHHDNCKIIAIDNSPAMIERCRRHIDAYKAPTPVDVIEGDIRDIAIENASMVVLNFTLQFLEPSERQALLDKIYQGLNPGGALVLSEKFSFEDAKVGELLFNMHHDFKRANGYSELEISQKRSMLENVMLTDSVETHKARLHNAGFEHSELWFQCFNFGSLVALKAEDAA", 0.0],
  ["MAGESFILMGVSGSGKTLIGSKVAALLSAKFIDGDDLHPAKNIDKMSQGIPLSDEDRLPWLERLNDASYSLYKKNETGFIVCSSLKKQYRDILRKGSPHVHFLWLDGDYETILARMQRRAGHFMPVALLKSQFEALERPQADEQDIVRIDINHDIANVTEQCRQAVLAIRQNRICAKEGSASDQRCE", 0.0],
  ["MSAQVSLELHHRISQFLFHEASLLDDWKFRDWLAQLDEEIRYTMRTTVNAQTRDRRKGVQPPTTWIFNDTKDQLERRIARLETGMAWAEEPPSRTRHLISNCQISETDIPNVFAVRVNYLLYRAQKERDETFYVGTRFDKVRRLEDDNWRLLERDIVLDQAVITSHNLSVLF", 0.0]
]}

Alright, here's another sequence for you.
Ask: Has MIDFGNFYSLIAKNHLSHWLETLPAQIANWQREQQHGLFKQWSNAVEFLPEIKPYRLDLLHSVTAESEEPLSAGQIKRIETLMRNLMPWRKGPFSLYGVNIDTEWRSDWKWDRVLPHLSDLTGRTILDVGCGSGYHMWRMIGAGAHLAVGIDPTQLFLCQFEAVRKLLGNDQRAHLLPLGIEQLPALKAFDTVFSMGVLYHRRSPLEHLWQLKDQLVNEGELVLETLVIDGDENTVLVPGDRYAQMRNVYFIPSALALKNWLKKCGFVDIRIADVSVTTTEEQRRTEWMVTESLADFLDPHDPGKTVEGYPAPKRAVLIARKP a recorded total protein half-life in vivo greater than or equal to 3 h?
Reply: 1.0

====

experiment: total protein half-life in vivo (active degradation + dilution); higher = more stable protein; settings: wild type E. coli NCM3722; growth: P-lim chemostat; doubling time 6 h
READOUT NAME: total protein half-life in vivo (h)
Numbers only; they are read as h.

The following sequences have reported results that may help.
{"columns": ["SEQ", "READOUT NAME", "QUANTITATIVE RESULT"],
 "data": [
  ["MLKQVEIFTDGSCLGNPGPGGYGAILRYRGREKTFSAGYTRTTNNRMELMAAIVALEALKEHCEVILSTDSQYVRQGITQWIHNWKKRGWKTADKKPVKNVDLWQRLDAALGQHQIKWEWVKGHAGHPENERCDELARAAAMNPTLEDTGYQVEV [P0A7Y4]", "total protein half-life in vivo", 6.5],
  ["MKKIACLSALAAVLAFTAGTSVAATSTVTGGYAQSDAQGQMNKMGGFNLKYRYEEDNSPLGVIGSFTYTEKSRTASSGDYNKNQYYGITAGPAYRINDWASIYGVVGVGYGKFQTTEYPTYKHDTSDYGFSYGAGLQFNPMENVALDFSYEQSRIRSVDVGTWIAGVGYRF [P0A917]", "total protein half-life in vivo", 6.15]
]}

Ask: Given the sequence MENLARFLSTTLKQLRQQRGWSLSRLAEATGVSKAMLGQIERNESSPTVATLWKIATGLNVPFSTFISPPQSATPSVYDPQQQAMVITSLFPYDPQLCFEHFSIQMASGAISESTPHEKGVIEHVVVIDGQLDLCVDGEWQTLNCGEGVRFAADVTHIYRNGGEQTVHFHSLIHYPRS , what is its reported total protein half-life in vivo?
Reply: 6.27

Ask: Given the sequence MKQYLIAPSILSADFARLGEDTAKALAAGADVVHFDVMDNHYVPNLTIGPMVLKSLRNYGITAPIDVHLMVKPVDRIVPDFAAAGASIITFHPEASEHVDRTLQLIKENGCKAGLVFNPATPLSYLDYVMDKLDVILLMSVNPGFGGQSFIPQTLDKLREVRRRIDESGFDIRLEVDGGVKVNNIGEIAAAGADMFVAGSAIFDQPDYKKVIDEMRSELAKVSHE [P0AG07] , what is its reported total protein half-life in vivo?
Reply: 5.72

====

assay: total protein half-life in vivo (active degradation + dilution); higher = more stable protein; settings: E. coli NCM3722 delta-smpB; growth: N-lim chemostat; doubling time 6 h
Known total protein half-life in vivo of a selection of sequences
Numbers only; they are read as h.

{"columns": ["SEQ", "total protein half-life in vivo [h]"],
 "data": [
  ["MDMDLNNRLTEDETLEQAYDIFLELAADNLDPADVLLFNLQFEERGGAELFDPAEDWQEHVDFDLNPDFFAEVVIGLADSEDGEINDVFARILLCREKDHKLCHIIWRE [P0A8L7]", 3.64]
]}

Ask: Given the sequence MVSRKRNSVIYRFASLLLVLMLSACSALQGTPQPAPPVTDHPQEIRRDQTQGLQRIGSVSTMVRGSPDDALAEIKAKAVAAKADYYVVVMVDETIVTGQWYSQAILYRK , what is its reported total protein half-life in vivo?
Reply: 5.58

Ask: Given the sequence MWKRLLIVSAVSAAMSSMALAAPLTVGFSQVGSESGWRAAETNVAKSEAEKRGITLKIADGQQKQENQIKAVRSFVAQGVDAIFIAPVVATGWEPVLKEAKDAEIPVFLLDRSIDVKDKSLYMTTVTADNILEGKLIGDWLVKEVNGKPCNVVELQGTVGASVAIDRKKGFAEAIKNAPNIKIIRSQSGDFTRSKGKEVMESFIKAENNGKNICMVYAHNDDMVIGAIQAIKEAGLKPGKDILTGSIDGVPDIYKAMMDGEANASVELTPNMAGPAFDALEKYKKDGTMPEKLTLTKSTLYLPDTAKEELEKKKNMGY , what is its reported total protein half-life in vivo?
Reply: 5.06

Ask: Given the sequence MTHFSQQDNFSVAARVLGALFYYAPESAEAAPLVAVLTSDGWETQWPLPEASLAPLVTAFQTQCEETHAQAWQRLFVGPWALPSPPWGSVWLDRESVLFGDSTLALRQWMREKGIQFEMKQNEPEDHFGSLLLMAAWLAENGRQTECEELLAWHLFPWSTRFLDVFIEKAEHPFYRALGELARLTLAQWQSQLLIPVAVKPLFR , what is its reported total protein half-life in vivo?
Reply: 4.5

====

assay: total protein half-life in vivo (active degradation + dilution); higher = more stable protein; details: wild type E. coli NCM3722; growth: P-lim chemostat; doubling time 6 h
READOUT NAME: total protein half-life in vivo (h)
Numbers only; they are read as h.

{"columns": ["SEQ", "total protein half-life in vivo / h"],
 "data": [
  ["MFSIQQPLLVFSDLDGTLLDSHSYDWQPAAPWLTRLREANVPVILCSSKTSAEMLYLQKTLGLQGLPLIAENGAVIQLAEQWQEIDGFPRIISGISHGEISLVLNTLREKEHFKFTTFDDVDDATIAEWTGLSRSQAALTQLHEASVTLIWRDSDERMAQFTARLNELGLQFMQGARFWHVLDASAGKDQAANWIIATYQQLSGKRPTTLGLGDGPNDAPLLEVMDYAVIVKGLNREGVHLHDEDPARVWRTQREGPEGWREGLDHFFSAR", 5.43],
  ["MSFFHASQRDALNQSLAEVQGQINVSFEFFPPRTSEMEQTLWNSIDRLSSLKPKFVSVTYGANSGERDRTHSIIKGIKDRTGLEAAPHLTCIDATPDELRTIARDYWNNGIRHIVALRGDLPPGSGKPEMYASDLVTLLKEVADFDISVAAYPEVHPEAKSAQADLLNLKRKVDAGANRAITQFFFDVESYLRFRDRCVSAGIDVEIIPGILPVSNFKQAKKFADMTNVRIPAWMAQMFDGLDDDAETRKLVGANIAMDMVKILSREGVKDFHFYTLNRAEMSYAICHTLGVRPGL [P0AEZ1]", 5.51],
  ["MHCPFCFAVDTKVIDSRLVGEGSSVRRRRQCLVCNERFTTFEVAELVMPRVVKSNDVREPFNEEKLRSGMLRALEKRPVSSDDVEMAINHIKSQLRATGEREVPSKMIGNLVMEQLKKLDKVAYIRFASVYRSFEDIKEFGEEIARLED [P0A8D0]", 4.68]
]}

# ---- query sequence ----
Ask: Given the sequence MKMIEVVAAIIERDGKILLAQRPAQSDQAGLWEFAGGKVEPDESQRQALVRELREELGIEATVGEYVASHQREVSGRIIHLHAWHVPDFHGTLQAHEHQALVWCSPEEALQYPLAPADIPLLEAFMALRAARPAD , what is its reported total protein half-life in vivo?
Reply: 4.59
